The molecules listed here are annotated with their cell viability.
# Test system: MARIMO
# Assay protocol: cell viability relative to vehicle control; higher = less cytotoxic;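 note: after 48 h exposure read by CellTiter-Glo luminescence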
# Particulars: 10 µM; SRSF2 genotype: SRSF2 wt/wt
Where a name gives a salt, the structure may show the parent alone.
Please reply with the bare figure in % and do not write the unit itself.

Field: example entries. Status: answers known.
So what's the measured cell viability for this one? CC1=C[C@H]2[C@@H](CC1)[C@H](C)CC[C@H]2[C@@H](C)C(=O)O [Dihydroartemisinic acid]
104

Next entry: O=C1C(=O)c2ccccc2C(O)=C1C1CCC(c2ccc(Cl)cc2)CC1 (stereo not drawn)
95.8

Cool, now CCc1c2c(nc3ccc(OC(=O)N4CCC(N5CCCCC5)CC4)cc13)-c1cc3c(c(=O)n1C2)COC(=O)[C@]3(O)CC [Irinotecan HCl Trihydrate (Campto)]
6.47

And C=C[C@@](C)(/C=C/c1ccc(O)cc1)CCC=C(C)C ?
83

Request: COc1cc(-c2coc3cc4c(c(OC)c3c2=O)OCO4)cc(OC)c1OC
96.8

More entries:
Quick one: cell viability for NC(=O)c1ccc[n+]([O-])c1 [Nicotinamide N-oxide] ?
109

Record: CCCCCCC(O)C(=O)O (stereo not drawn) [2-Hydroxycaprylic acid]
105

---

# Tested on: MOLM14
# Assay protocol: cell viability relative to vehicle control; higher = less cytotoxic
# Particulars: 10 µM; SRSF2 genotype: SRSF2 wt/wt
Parameter: cell viability (%)
Record the value in %, omitting the unit from your answer.

Worked examples follow.
What does the record list as cell viability for Cc1cc(C)nc(O)n1.O=C(Nc1ccc([N+](=O)[O-])cc1)Nc1ccc([N+](=O)[O-])cc1 ?
101

Please give the result for Nc1nc(F)nc2c1ncn2[C@@H]1O[C@H](COP(=O)(O)O)[C@@H](O)[C@@H]1O [Fludarabine Phosphate (Fludara)] too.
101

Follow-up item: COc1ccc(C(=O)CC(=O)c2ccc(C(C)(C)C)cc2)cc1
98.9

Now, please, on to the next molecule.
What value of cell viability has been reported for the following molecule? Cc1c(C(C)C)c(=O)n(-c2ccccc2)n1C [Propyphenazone (4-Isopropylantipyrine)]
101

---

# Test system: MARIMO
# Assay protocol: cell viability relative to vehicle control; higher = less cytotoxic
# Particulars: 10 µM; SRSF2 genotype: SRSF2 wt/wt
Parameter: cell viability (%)
Respond with the bare value in %.

Study these solved cases before continuing.
Record C[C@]12CC[C@@H]3c4ccc(O)cc4CC[C@H]3[C@@H]1CC[C@@H]2O : what is its cell viability with MARIMO?
90.2

Next entry: CNC(=O)[C@H](Cc1c[nH]c2ccccc12)NC(=O)[C@@H](CC(=O)NO)CC(C)C
97.5

Also, O=C(Nc1ccc(Br)cc1)c1c(O)cccc1O please.
39.3

Again, but for COc1cccc(Nc2c(C(N)=O)cnc3c(C)cc(S(=O)(=O)c4cccc(C(=O)N(C)C)c4)cc23)c1
101

Turning now to a further record.
Item: CC1CCCCCCCCCCCCC(=O)C1 (stereo not given) Test system: MARIMO Read-out: cell viability Value: ?
97.1

---

# Tested on: MOLM14
# Assay protocol: cell viability relative to vehicle control; higher = less cytotoxic
# Particulars: 10 µM; SRSF2 genotype: SRSF2 wt/wt
Note to self: use YES only for cell viability readings below 80%; a reading exactly at 80% still gets NO.

Example entries begin here.
Dear reviewer, please state whether N#CC[C@H](C1CCCC1)n1cc(-c2ncnc3[nH]ccc23)cn1 has cell viability strictly beneath 80%.
NO

Now give it for CCOC(=O)C1=C(COCCN)NC(C)=C(C(=O)OC)C1c1ccccc1Cl (stereo unspecified) [Amlodipine (Norvasc)] too.
YES

Another molecule: C[N+]1(C)[C@@H]2CC[C@H]1C[C@@H](OC(=O)C(O)c1ccccc1)C2 (stereo partly specified) [Homatropine Methylbromide]
NO

Now give it for CC1(C)CC[C@]2(C(=O)O)CC[C@]3(C)C(=CC[C@@H]4[C@@]5(C)CC[C@H](O[C@@H]6O[C@H](C(=O)O)[C@@H](O)[C@H](O[C@@H]7OC[C@@H](O)[C@H](O)[C@H]7O)[C@H]6O)C(C)(C)[C@@H]5CC[C@]43C)[C@@H]2C1 [Momordin Ic] too.
NO

Check CC(C)(O)CNc1ncc(-c2ccnc(Nc3ccnc(Cl)c3)n2)c(CC2CC2)n1 too.
YES

Entry to check: O=C(Nc1ccc(O)c(C(=O)O)c1)c1cccc(NC(=O)c2ccco2)c1
NO

Another molecule to look at: OC(c1cc(-c2ccc(Cl)cc2)nc2ccccc12)C1CCCCN1 (stereo unspecified) [Vacquinol-1]
YES

Field entry: CCOCc1nc2c(N)nc3ccccc3c2n1CC(C)(C)O [Resiquimod]
NO

***
Determine whether this molecule shows cell viability lower than 80% (ties excluded): C[C@@H](O)[C@H]1C(=O)N2C(C(=O)O)=C(S[C@@H]3CN[C@H](CNS(N)(=O)=O)C3)[C@H](C)[C@H]12 [Doripenem Hydrate]
NO

Repeat for the following molecule: CCCCCCCCC(=O)O [Nonanoic acid]
NO

---

# Test system: OCI-AML2
# Assay protocol: cell viability relative to vehicle control; higher = less cytotoxic
# Particulars: 10 µM; SRSF2 genotype: P95H/wt
Recorded cell viability for the following compounds
Numeric answer only, unit % assumed.

Some solved entries appear below for comparison.
Tell me the measured cell viability of C[C@@H]1CC[C@@]2(OC1)O[C@H]1C[C@H]3[C@@H]4CC=C5C[C@@H](O[C@@H]6O[C@H](CO)[C@@H](O[C@@H]7O[C@@H](C)[C@H](O[C@@H]8O[C@@H](C)[C@H](O)[C@@H](O)[C@H]8O)[C@@H](O)[C@H]7O)[C@H](O)[C@H]6O[C@@H]6O[C@@H](C)[C@H](O)[C@@H](O)[C@H]6O)CC[C@]5(C)[C@H]4CC[C@]3(C)[C@@]1(O)[C@@H]2C , please.
0.37

What do you have for Oc1ncnc2[nH]ncc12 [Allopurinol (Zyloprim)] ?
101

Now for another entry.
Look up cell viability: CC1=C[C@H]2[C@@H](CC1)[C@H](C)CC[C@H]2[C@@H](C)C(=O)O [Dihydroartemisinic acid]
98.5

---

# System: K562
# Assay protocol: cell viability relative to vehicle control; higher = less cytotoxic
# Particulars: 10 µM; SRSF2 genotype: SRSF2 wt/wt
Counter-ions that a name gives are not always drawn.
Field 'label' (enum: label 1 / label 0). Set to label 1 when cell viability is strictly under 60%; else label 0.

Take a look at these entries with their results.
A record lists C[C@H]1Oc2cc(cnc2N)-c2c(nn(C)c2C#N)CN(C)C(=O)c2ccc(F)cc21 . Is its cell viability below 60%?
label 0

Now this one: NC(=O)c1cccnc1 [Nicotinamide (Vitamin B3)]
label 0

Here is the next compound: CC(C)C[C@H](NP(=O)(O)O[C@@H]1O[C@@H](C)[C@H](O)[C@@H](O)[C@H]1O)C(=O)N[C@@H](Cc1c[nH]c2ccccc12)C(=O)O [Phosphoramidon Disodium Salt]
label 0

Please do the same for Nc1nc2c(ncn2COC(CO)CO)c(=O)[nH]1 as well.
label 0

Now the same for Cc1cc(Nc2cc(N3CCN(C)CC3)nc(/C=C/c3ccccc3)n2)n[nH]1 [ENMD-2076 L-(+)-Tartaric acid]
label 1

Can you check Cn1sc(=O)n(Cc2ccccc2)c1=O next?
label 1

Others:
Just wondering, is cell viability of CC(C)(C)c1cnc(CSc2cnc(NC(=O)C3CCNCC3)s2)o1 below 60%?
label 1

Proceed to CC(C)(C)n1nc(-c2ccc(Cl)cc2)c2c(N)ncnc21
label 0

Query CNC[C@H](O)c1cccc(O)c1 [Phenylephrine hydrochloride] next
label 0

---

# System: MOLM14
# Assay protocol: cell viability relative to vehicle control; higher = less cytotoxic
# Particulars: 10 µM; SRSF2 genotype: SRSF2 wt/wt
Parameter: cell viability (%)
Give the number; % is assumed, so skip it.

# lookup: cell viability of CCOC(=O)NCCCC(=O)NCCc1ccccc1
105

New cases:
Name the reported cell viability value associated with the molecule CC1(C)CC[C@]2(C(=O)O)CC[C@]3(CO)C(=CC[C@@H]4[C@@]5(C)C[C@H](O)[C@H](O[C@@H]6O[C@H](CO)[C@@H](O)[C@H](O)[C@H]6O)[C@@](C)(C(=O)O)[C@@H]5CC[C@]43C)[C@@H]2C1
108

// repeat for CCC(=O)NC[C@@H]1C[C@H]1c1cccc2c1CCO2 and report
93.1

Then what about the molecule CC(=O)N1c2ccc(-c3ccc(C(=O)O)cc3)cc2[C@H](Nc2ccc(Cl)cc2)C[C@@H]1C ?
14.4

---

# Test system: K562
# Assay protocol: cell viability relative to vehicle control; higher = less cytotoxic
# Particulars: 10 µM; SRSF2 genotype: SRSF2 wt/wt
Counter-ions that a name gives are not always drawn.
Parameter: cell viability (%)
Hi! Could you send only the number? It should be in %, unit omitted.

Lab note: need cell viability with K562 for entry CO/N=C(\C(=O)N[C@@H]1C(=O)N2C(C(=O)[O-])=C(C[n+]3cccc4c3CCC4)CS[C@H]12)c1csc(N)n1 [Cefpirome sulfate] , please look it up.
106

# repeat for CCn1cc(C(=O)O)c(=O)c2ccc(C)nc21 [Nalidixic acid (NegGram)]
106

And then CN(C)Cc1cccc(N=C(c2ccccc2)c2c(O)[nH]c3cc(C(=O)N(C)C)ccc23)c1 , what is it?
79.6

# repeat for CCC(=O)N1CCN(c2ccc(-n3c(=O)ccc4cnc5ccc(-c6cnc7ccccc7c6)cc5c43)cc2C(F)(F)F)CC1 [Torin 1]
46.4

Now the compound OCCOCCN1CCN(C(c2ccccc2)c2ccc(Cl)cc2)CC1 (centres undefined) [Hydroxyzine pamoate]
100

Now this one: O=Cc1ccc(O[C@@H]2O[C@H](CO)[C@@H](O)[C@@H](O)[C@H]2O)cc1 [Helicide]
103

---
Could you share what cell viability was measured for CC(=O)Oc1ccc(C(=C2CCCCC2)c2ccc(OC(C)=O)cc2)cc1 [Cyclofenil] , tested on K562?
98.5

Proceed to CC/C(=C(\c1ccc(O)cc1)c1ccc(OCCN(C)C)cc1)c1ccccc1 [4-Hydroxytamoxifen]
28

Moving on to Cc1ccc(Nc2cc(N[C@@H]3CCCC[C@@H]3N)nnc2C(N)=O)nc1C
80.7

For CO[C@@H](C)Cn1c(=O)n(C)c2cnc3ccc(-c4cncc(C(C)(C)O)c4)cc3c21 then?
35

Now give it for O=C(Nc1ccc(Br)cc1)c1ccc(Br)c(S(=O)(=O)NCc2ccccc2)c1 too.
86.8

Query COC(=O)N1CCN(Cc2cccc(NC(=O)Nc3ccc(C)nc3)c2F)CC1 next
96.5

Thanks! And Cc1ccc(C(=O)Nc2ccc(CN3CCN(C)CC3)c(C(F)(F)F)c2)cc1C#Cc1cnc2[nH]ncc2c1 [GZD824 Dimesylate] ?
0.26

// next record CC[C@@H]1C(=O)N(C)c2cnc(Nc3ccc(C(=O)NC4CCN(C)CC4)cc3OC)nc2N1C1CCCC1
1.81

Cc1nnc(SCC2=C(C(=O)O)N3C(=O)[C@@H](NC(=O)Cn4cc(Cl)c(=O)c(Cl)c4)[C@H]3SC2)s1 [Cefazedone] ?
108

Moving on to the next compound: CCc1c(C(=O)NCCc2ccc(N3CCCCC3)cc2)[nH]c2ccc(Cl)cc12
111

Subsequent entry: CC[C@H](C)n1cc(C)c2c(C(=O)NCc3c(C)cc(C)[nH]c3=O)cc(-c3ccc(N4CCNCC4)nc3)cc21
78.2

Same again, this time with Cn1nnc2c(C(N)=O)ncn2c1=O [Temozolomide]
101

Consider next the compound CC(C)[C@H](CO)Nc1nc(Nc2cccc(Cl)c2)c2ncn(C(C)C)c2n1 [Purvalanol A] in the same way.
85.1

Queued: O=C(O)COCCN1CCN(C(c2ccccc2)c2ccc(Cl)cc2)CC1 (centres undefined) [Cetirizine Dihydrochloride]
98.7
